molecules and their reported Off-smell/Off flavor Intensity
# test_protocol: Sensory descriptive analysis by experts (n=15)
# experimental_context: diluted to equivalent sweetness based on 10 brix of sugar
# Method: The transfructosylated Stevioside (STV-Fru) and the transfructosylated Rebaudioside A (RA-Fru) prepared in Preparation Example 1 were diluted to the sweetness equivalent to Stevioside (STV) and Rebaudioside A (RA) (sweetness based on 10 brix of sugar), respectively, and then presented to experts (n=15) for descriptive analysis.
// no unit, no text: just the number

Completed entries (count: 3):
molecule	Off-smell/Off flavor Intensity
C=C1C[C@@]23CC[C@H]4[C@@](C)(CCC[C@@]4(C)C(=O)O[C@@H]4O[C@H](CO)[C@@H](O)[C@H](O)[C@H]4O)[C@@H]2CC[C@]1(O[C@@H]1O[C@H](CO)[C@@H](O)[C@H](O)[C@H]1O[C@@H]1O[C@H](CO)[C@@H](O)[C@H](O)[C@H]1O)C3 [STV, Stevioside, reference compound]	3.5
C=C1C[C@@]23CC[C@H]4[C@@](C)(CCC[C@@]4(C)C(=O)O[C@@H]4O[C@H](CO[C@]5(CO)O[C@H](CO)[C@@H](O)[C@@H]5O)[C@@H](O)[C@H](O)[C@H]4O)[C@@H]2CC[C@]1(O[C@@H]1O[C@H](CO)[C@@H](O)[C@H](O)[C@H]1O[C@@H]1O[C@H](CO)[C@@H](O)[C@H](O)[C@H]1O)C3	2.3
C=C1C[C@@]23CC[C@H]4[C@@](C)(CCC[C@@]4(C)C(=O)O[C@@H]4O[C@H](CO[C@]5(CO)O[C@H](CO)[C@@H](O)[C@@H]5O)[C@@H](O)[C@H](O)[C@H]4O)[C@@H]2CC[C@]1(O[C@@H]1O[C@H](CO)[C@@H](O)[C@H](O[C@@H]2O[C@H](CO)[C@@H](O)[C@H](O)[C@H]2O)[C@H]1O[C@@H]1O[C@H](CO)[C@@H](O)[C@H](O)[C@H]1O)C3	2.4

Now turn to the next molecule.
Bench note: what Off-smell/Off flavor Intensity did C=C1C[C@@]23CC[C@H]4[C@@](C)(CCC[C@@]4(C)C(=O)O[C@@H]4O[C@H](CO)[C@@H](O)[C@H](O)[C@H]4O)[C@@H]2CC[C@]1(O[C@@H]1O[C@H](CO)[C@@H](O)[C@H](O[C@@H]2O[C@H](CO)[C@@H](O)[C@H](O)[C@H]2O)[C@H]1O[C@@H]1O[C@H](CO)[C@@H](O)[C@H](O)[C@H]1O)C3 [RA, Rebaudioside A, reference compound] show? 3.3

---

# test_protocol: Sensory descriptive analysis by experts (n=15)
# experimental_context: diluted to equivalent sweetness based on 10 brix of sugar
# Experimental: The transfructosylated Stevioside (STV-Fru) and the transfructosylated Rebaudioside A (RA-Fru) prepared in Preparation Example 1 were diluted to the sweetness equivalent to Stevioside (STV) and Rebaudioside A (RA) (sweetness based on 10 brix of sugar), respectively, and then presented to experts (n=15) for descriptive analysis.
compounds and their reported Sweetness Intensity

Completed entries (count: 3):
compound	Sweetness Intensity
C=C1C[C@@]23CC[C@H]4[C@@](C)(CCC[C@@]4(C)C(=O)O[C@@H]4O[C@H](CO[C@]5(CO)O[C@H](CO)[C@@H](O)[C@@H]5O)[C@@H](O)[C@H](O)[C@H]4O)[C@@H]2CC[C@]1(O[C@@H]1O[C@H](CO)[C@@H](O)[C@H](O)[C@H]1O[C@@H]1O[C@H](CO)[C@@H](O)[C@H](O)[C@H]1O)C3	2.6
C=C1C[C@@]23CC[C@H]4[C@@](C)(CCC[C@@]4(C)C(=O)O[C@@H]4O[C@H](CO[C@]5(CO)O[C@H](CO)[C@@H](O)[C@@H]5O)[C@@H](O)[C@H](O)[C@H]4O)[C@@H]2CC[C@]1(O[C@@H]1O[C@H](CO)[C@@H](O)[C@H](O[C@@H]2O[C@H](CO)[C@@H](O)[C@H](O)[C@H]2O)[C@H]1O[C@@H]1O[C@H](CO)[C@@H](O)[C@H](O)[C@H]1O)C3	3.1
C=C1C[C@@]23CC[C@H]4[C@@](C)(CCC[C@@]4(C)C(=O)O[C@@H]4O[C@H](CO)[C@@H](O)[C@H](O)[C@H]4O)[C@@H]2CC[C@]1(O[C@@H]1O[C@H](CO)[C@@H](O)[C@H](O[C@@H]2O[C@H](CO)[C@@H](O)[C@H](O)[C@H]2O)[C@H]1O[C@@H]1O[C@H](CO)[C@@H](O)[C@H](O)[C@H]1O)C3 [RA, Rebaudioside A, reference compound]	3.2

Now turn to the next compound.
Bench note: what Sweetness Intensity did C=C1C[C@@]23CC[C@H]4[C@@](C)(CCC[C@@]4(C)C(=O)O[C@@H]4O[C@H](CO)[C@@H](O)[C@H](O)[C@H]4O)[C@@H]2CC[C@]1(O[C@@H]1O[C@H](CO)[C@@H](O)[C@H](O)[C@H]1O[C@@H]1O[C@H](CO)[C@@H](O)[C@H](O)[C@H]1O)C3 [STV, Stevioside, reference compound] show? 2.8

---

# test_protocol: Sensory descriptive analysis by experts (n=15)
# experimental_context: diluted to equivalent sweetness based on 10 brix of sugar
compounds and their reported Bitterness Intensity
// no unit, no text: just the number

Completed entries (count: 3):
compound	test_result
C=C1C[C@@]23CC[C@H]4[C@@](C)(CCC[C@@]4(C)C(=O)O[C@@H]4O[C@H](CO[C@]5(CO)O[C@H](CO)[C@@H](O)[C@@H]5O)[C@@H](O)[C@H](O)[C@H]4O)[C@@H]2CC[C@]1(O[C@@H]1O[C@H](CO)[C@@H](O)[C@H](O)[C@H]1O[C@@H]1O[C@H](CO)[C@@H](O)[C@H](O)[C@H]1O)C3 [STV-Fru]	2.3
C=C1C[C@@]23CC[C@H]4[C@@](C)(CCC[C@@]4(C)C(=O)O[C@@H]4O[C@H](CO)[C@@H](O)[C@H](O)[C@H]4O)[C@@H]2CC[C@]1(O[C@@H]1O[C@H](CO)[C@@H](O)[C@H](O[C@@H]2O[C@H](CO)[C@@H](O)[C@H](O)[C@H]2O)[C@H]1O[C@@H]1O[C@H](CO)[C@@H](O)[C@H](O)[C@H]1O)C3 [RA, Rebaudioside A, reference compound]	3.4
C=C1C[C@@]23CC[C@H]4[C@@](C)(CCC[C@@]4(C)C(=O)O[C@@H]4O[C@H](CO[C@]5(CO)O[C@H](CO)[C@@H](O)[C@@H]5O)[C@@H](O)[C@H](O)[C@H]4O)[C@@H]2CC[C@]1(O[C@@H]1O[C@H](CO)[C@@H](O)[C@H](O[C@@H]2O[C@H](CO)[C@@H](O)[C@H](O)[C@H]2O)[C@H]1O[C@@H]1O[C@H](CO)[C@@H](O)[C@H](O)[C@H]1O)C3 [RA-Fru]	1.8

Now turn to the next compound.
Bench note: what Bitterness Intensity did C=C1C[C@@]23CC[C@H]4[C@@](C)(CCC[C@@]4(C)C(=O)O[C@@H]4O[C@H](CO)[C@@H](O)[C@H](O)[C@H]4O)[C@@H]2CC[C@]1(O[C@@H]1O[C@H](CO)[C@@H](O)[C@H](O)[C@H]1O[C@@H]1O[C@H](CO)[C@@H](O)[C@H](O)[C@H]1O)C3 [STV, Stevioside, reference compound] show? 3.9

---

# test_protocol: Sensory preference evaluation by 15 panels
# experimental_context: diluted to sweetness equivalent to 10% (w/w) or 10 brix of sugar, 9-point scale converted to 5-point scale
value_kind: Sweetness Preference
// no unit, no text: just the number

compound	Sweetness Preference
C=C1C[C@@]23CC[C@H]4[C@@](C)(CCC[C@@]4(C)C(=O)O[C@@H]4O[C@H](CO[C@]5(CO)O[C@H](CO)[C@@H](O)[C@@H]5O)[C@@H](O)[C@H](O)[C@H]4O)[C@@H]2CC[C@]1(O[C@@H]1O[C@H](CO)[C@@H](O)[C@H](O[C@@H]2O[C@H](CO)[C@@H](O)[C@H](O)[C@H]2O)[C@H]1O[C@@H]1O[C@H](CO)[C@@H](O)[C@H](O)[C@H]1O)C3 [RA-Fru]	3.42
C=C1C[C@@]23CC[C@H]4[C@@](C)(CCC[C@@]4(C)C(=O)O[C@@H]4O[C@H](CO)[C@@H](O)[C@H](O)[C@H]4O)[C@@H]2CC[C@]1(O[C@@H]1O[C@H](CO)[C@@H](O)[C@H](O[C@@H]2O[C@H](CO)[C@@H](O)[C@H](O)[C@H]2O)[C@H]1O[C@@H]1O[C@H](CO)[C@@H](O)[C@H](O)[C@H]1O)C3 [RA, Rebaudioside A, reference compound]	2.51
C=C1C[C@@]23CC[C@H]4[C@@](C)(CCC[C@@]4(C)C(=O)O[C@@H]4O[C@H](CO[C@]5(CO)O[C@H](CO)[C@@H](O)[C@@H]5O)[C@@H](O)[C@H](O)[C@H]4O)[C@@H]2CC[C@]1(O[C@@H]1O[C@H](CO)[C@@H](O)[C@H](O)[C@H]1O[C@@H]1O[C@H](CO)[C@@H](O)[C@H](O)[C@H]1O)C3 [STV-Fru]	3.14

Now turn to the next compound.
Bench note: what Sweetness Preference did C=C1C[C@@]23CC[C@H]4[C@@](C)(CCC[C@@]4(C)C(=O)O[C@@H]4O[C@H](CO)[C@@H](O)[C@H](O)[C@H]4O)[C@@H]2CC[C@]1(O[C@@H]1O[C@H](CO)[C@@H](O)[C@H](O)[C@H]1O[C@@H]1O[C@H](CO)[C@@H](O)[C@H](O)[C@H]1O)C3 [STV, Stevioside, reference compound] show? 2.13
